B1: Azoarcus group I ribozyme (parent)
chain: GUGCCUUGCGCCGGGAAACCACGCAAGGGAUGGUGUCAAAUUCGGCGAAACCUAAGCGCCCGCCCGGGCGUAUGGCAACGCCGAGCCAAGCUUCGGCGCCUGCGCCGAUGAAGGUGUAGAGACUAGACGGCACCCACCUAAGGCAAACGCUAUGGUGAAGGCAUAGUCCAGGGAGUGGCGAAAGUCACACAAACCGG

Variants of: B1
protocol.text: reverse-splicing fitness (ratio to wild type); higher = more active; in vitro selection; Mg2+ level not given
reported.endpoint: reverse-splicing fitness

Recorded results for 3 variants are shown here.
Ask: Fill in the blank: the reported reverse-splicing fitness of C82U A111G A120U C150U C169A is ____.
Result: 0.00334

Ask: Could you do the same for C82A A120U C150A U176C , please?
Result: 0.00899

Ask: Could you do the same for A111U A120G A145C C150A C169G U176A , please?
Result: 0.0261

More entries:
Ask: Fill in the blank: the reported reverse-splicing fitness of C82U A111C A120U A145U C150U C169A U176A is ____.
Result: 0.00306

Ask: Could you do the same for C82A A111U A120C A145G C169U U176C , please?
Result: 0.0156

Ask: Could you do the same for C82A A111U A120G A145U C150G C169G U176G , please?
Result: 0.00488

Ask: Could you do the same for C82U A111C A120U A145C C150A C169A , please?
Result: 0.00255

Ask: Could you do the same for C82A A111C A120C C169A , please?
Result: 0.00922

Ask: Could you do the same for C82U A111U A120C A145U C150A U176G , please?
Result: 0.0048

Ask: Could you do the same for A111G A120G A145G C150A U176C , please?
Result: 0.0374

Ask: Could you do the same for C82A A120U A145U C150G C169U U176G , please?
Result: 0.0021

Ask: Could you do the same for C82G A111G A145G C169U U176A , please?
Result: 0.0132

Ask: Could you do the same for C82U A111U A120U C150G C169U , please?
Result: 0.00478

Ask: Could you do the same for A120G C150A C169U U176A , please?
Result: 0.0635

Ask: Could you do the same for A111G A145U C150G C169U , please?
Result: 0.0229

Ask: Could you do the same for C82A A111G A120C A145C C150A C169G U176A , please?
Result: 0.0288

Ask: Could you do the same for C82A A111U A120C A145C C150G C169A U176G , please?
Result: 0.0073
